Read-out: Plasminogen activator inhibitor-1 (PAI1), SERPINE1 (gene 5054)
test-details: BSK_BE3C_PAI1: BioMAP Diversity Plus: BE3C Assay for Plasminogen activator inhibitor-1 (PAI1) Biomarker Activity (AID 2283037)
condition-summary: primary human bronchial epithelial cells; actives raise or lower the signal
Activity calls are given as the source filed them. How the source made its calls: active means hit-call score of the fitted dose curve at least 0.9, where 1 is the maximum; inactive means score below 0.9.
Outcome field: choose from active, inactive

// known answers, use as guide
[[record]]
smiles_structure = "CC(c1ccc(O)cc1)(c1ccc(O)cc1)c1ccc(O)cc1"
category_label = "active"

[[record]]
smiles_structure = "CN(C)c1nc(=O)n(C2CCCCC2)c(=O)n1C"
category_label = "inactive"

[[record]]
smiles_structure = "CO/C=C(/C(=O)OC)c1ccccc1COc1cccc(C(F)(F)F)n1"
category_label = "inactive"

[[record]]
smiles_structure = "Clc1ccc(C(Cl)(Cl)Cl)cc1"
category_label = "inactive"

[[record]]
smiles_structure = "ClC1=C(Cl)[C@]2(Cl)[C@@H]3[C@@H]4C[C@@H]([C@H]5O[C@@H]45)[C@@H]3[C@@]1(Cl)C2(Cl)Cl"
category_label = "inactive"


In: Can you look up the reported call for CCOCCOC(C)=O for me?
Out: inactive

In: Proceed to C=CC(=O)NCNC(=O)C=C
Out: inactive

In: Proceed to Cc1ccccc1[N+](=O)[O-]
Out: inactive

In: Proceed to CCCCCCCCCc1ccc(O)cc1
Out: active

In: Proceed to COS(=O)(=O)OC
Out: inactive

In: Proceed to Oc1ccc(Cl)cc1Cl
Out: inactive

In: Proceed to O=C(NC(=O)c1c(F)cccc1F)Nc1cc(Cl)c(OC(F)(F)C(F)F)c(Cl)c1
Out: inactive

In: Proceed to Cc1ccc(O)c(C)c1
Out: inactive

---

test-details: CCTE_Mundy_HCI_hNP1_CellTiter: CCTE's Cell Titer-Glo 2 Assay in human neuroprogenitor cells for Viability, Mundy Lab (AID 2284241)
Method: CCTE_Mundy_HCI_hNP1_CellTiter is a multiplexed, cell-based-readout assay that uses neural stem cells derived from a neuroepithelial cell lineage of WA09 embryonic cells with measurements taken at […] after chemical dosing in a microplate: 96-well plate.CCTE_Mundy_HCI_hNP1_CellTiter is one component of the CCTE_Mundy_HCI_hNP1_CellTiter assay. […]
Inconclusive results are not listed. Active and inactive are the calls of the source. The calls were made as follows: active = hit-call score of the fitted dose curve at least 0.9, where 1 is the maximum; inconclusive = response in the unintended direction; inactive = score below 0.9.
Outcome field: choose from active, inactive

// known answers, use as guide
[[record]]
smiles_structure = "ClC1=C(Cl)[C@]2(Cl)[C@@H]3[C@@H](Cl)[C@H]4O[C@H]4[C@@H]3C1(Cl)C2(Cl)Cl"
category_label = "active"

[[record]]
smiles_structure = "O=C(O)C(F)(F)C(F)(F)C(F)(F)C(F)(F)C(F)(F)C(F)(F)C(F)(F)C(F)(F)C(F)(F)F"
category_label = "inactive"


In: Can you look up the reported call for CO/C=C(/C(=O)OC)c1ccccc1COc1cccc(C(F)(F)F)n1 for me?
Out: active

In: Proceed to O=S(=O)(O)C(F)(F)C(F)(F)C(F)(F)C(F)(F)F
Out: inactive

In: Proceed to C=CC(N)=O
Out: inactive

In: Proceed to O=S(=O)(O)C(F)(F)C(F)(F)C(F)(F)C(F)(F)C(F)(F)C(F)(F)F
Out: inactive

---

Read-out: Collagen III, COL3A1 (gene 1281)
test-details: BSK_hDFCGF_CollagenIII: BioMAP Diversity Plus: hDFCGF Assay for Collagen III Biomarker Activity (AID 2283056)
condition-summary: primary human foreskin fibroblasts; actives raise or lower the signal
Calls of active or inactive are those of the source. The calls were made as follows: active = hit-call score of the fitted dose curve at least 0.9, where 1 is the maximum; inactive = score below 0.9.
Outcome field: choose from True for active, False for inactive

// known answers, use as guide
[[record]]
smiles_structure = "CO/C=C(/C(=O)OC)c1ccccc1COc1cccc(C(F)(F)F)n1"
category_label = "True"

[[record]]
smiles_structure = "C=CC(=O)NCNC(=O)C=C"
category_label = "False"


In: Can you look up the reported call for CCCCCCCCCC[N+](C)(C)CCCCCCCCCC for me?
Out: True

In: Proceed to c1ccc(-c2ccccc2)cc1
Out: False

In: Proceed to ClC1=C(Cl)[C@]2(Cl)[C@@H]3[C@H]4C[C@H]([C@@H]5O[C@H]45)[C@@H]3[C@@]1(Cl)C2(Cl)Cl
Out: False

In: Proceed to Cc1cccc([N+](=O)[O-])c1
Out: False

---

Read-out: growth arrest and DNA damage 45 (GADD45G), GADD45G (gene 10912)
test-details: LTEA_HepaRG_GADD45G: Life Technologies and Expression Analysis (LTEA) Assay for growth arrest and DNA damage 45 (GADD45G) using HepaRG (AID 2283499)
condition-summary: mRNA level, 48 h; actives raise or lower the signal
Active and inactive are the calls of the source. The calls were made as follows: active = hit-call score of the fitted dose curve at least 0.9, where 1 is the maximum; inactive = score below 0.9.
Outcome field: choose from true = active, false = inactive

[[record]]
compound = "CCCCCCOC(=O)c1ccccc1C(=O)OCCCCCC"
category_label = "false"

[[record]]
compound = "CCC(C)(CC)c1cc(NC(=O)c2c(OC)cccc2OC)on1"
category_label = "true"

[[record]]
compound = "CC(c1ccc(O)cc1)(c1ccc(O)cc1)c1ccc(O)cc1"
category_label = "true"

[[record]]
compound = "CCCCCCCCCC[N+](C)(C)CCCCCCCCCC"
category_label = "true"

[[record]]
compound = "CN(C)CCO"
category_label = "false"

[[record]]
compound = "CCOCCOC(C)=O"
category_label = "false"

[[record]]
compound = "CCCN(CCC)N=O"
category_label = "false"

[[record]]
compound = "O=S(=O)(O)C(F)(F)C(F)(F)C(F)(F)C(F)(F)C(F)(F)C(F)(F)F"
category_label = "true"

[[record]]
compound = "Nn1cnnc1"
category_label = "false"

[[record]]
compound = "Cc1ccccc1[N+](=O)[O-]"
category_label = "false"


In the following, a different compound is considered.
In: Can you look up the reported call for COc1ccc(O)c(C(C)(C)C)c1 for me?
Out: false

---

Read-out: xenobiotic metabolism (CYP1A1), CYP1A1 (gene 1543)
test-details: CLD_CYP1A1_6hr: CellzDirect (CLD) Gene Expression Assay for xenobiotic metabolism (CYP1A1) at 6 hours (AID 2283661)
Results filed as inconclusive are left out. The source made the active and inactive calls. How the source made its calls: active means hit-call score of the fitted dose curve at least 0.9, where 1 is the maximum; inconclusive means response in the unintended direction; inactive means score below 0.9.
quantity-name: outcome

[[record]]
smiles_structure = "CN(C)c1nc(=O)n(C2CCCCC2)c(=O)n1C"
quantity_name = "outcome"
experimental_value = "inactive"

[[record]]
smiles_structure = "Cc1ccccc1CO[C@@H]1C[C@@]2(C(C)C)CC[C@]1(C)O2"
quantity_name = "outcome"
experimental_value = "inactive"

[[record]]
smiles_structure = "CCSC(=O)N(CC)C1CCCCC1"
quantity_name = "outcome"
experimental_value = "inactive"

[[record]]
smiles_structure = "CCC(C)(CC)c1cc(NC(=O)c2c(OC)cccc2OC)on1"
quantity_name = "outcome"
experimental_value = "inactive"


---

Read-out: Interleukin-8 (IL8), CXCL8 (gene 3576)
test-details: BSK_3C_IL8: BioMAP Diversity Plus: 3C Assay for Interleukin-8 (IL8) Biomarker Activity (AID 2283020)
condition-summary: primary human endothelial cells (HUVEC); actives raise or lower the signal
The source made the active and inactive calls. The calls were made as follows: active = hit-call score of the fitted dose curve at least 0.9, where 1 is the maximum; inactive = score below 0.9.
quantity-name: AC50

For orientation, consider the following solved cases.
[[record]]
molecule = "Cc1ccc(O)c(C)c1"
experimental_value = "inactive"

[[record]]
molecule = "CC(C)C(=O)OCC(C)(C)C(OC(=O)C(C)C)C(C)C (stereo not drawn)"
experimental_value = "inactive"

[[record]]
molecule = "O=C(NC(=O)c1cc(F)c(F)cc1Cl)Nc1cc(F)ccc1N1CCC(C(=O)O)CC1"
experimental_value = "inactive"

[[record]]
molecule = "Nc1ccc(-c2ccc(N)cc2)cc1"
experimental_value = "inactive"


For each entry beneath this line, provide reported AC50.
1. Clc1ccc(C(c2ccccc2Cl)C(Cl)(Cl)Cl)cc1 (stereo not drawn)
2. CCC(C)(CC)c1cc(NC(=O)c2c(OC)cccc2OC)on1
3. CCOCCOC(C)=O

Out:
1. 20.4 µM (active)
2. inactive
3. inactive

For each entry beneath this line, provide reported AC50.
1. C=CC(=O)NCNC(=O)C=C
2. Cc1cc(-c2ccc(N)c(C)c2)ccc1N
3. O=C(NC(=O)c1c(F)cccc1F)Nc1cc(Cl)c(OC(F)(F)C(F)F)c(Cl)c1
4. c1ccc(-c2ccccc2)cc1
5. O=C(N[C@H]1CN2CCC1CC2)c1cc2ccoc2cn1
6. CO/C=C(/C(=O)OC)c1ccccc1COc1cccc(C(F)(F)F)n1

Out:
1: inactive; 2: inactive; 3: inactive; 4: inactive; 5: inactive; 6: 10.1 µM (active)

For each entry beneath this line, provide reported AC50.
1. CCC(C)c1cc([N+](=O)[O-])cc([N+](=O)[O-])c1O (stereo not drawn)
2. Clc1ccc(Cl)cc1
3. Nn1cnnc1
4. O=S(=O)(O)C(F)(F)C(F)(F)C(F)(F)C(F)(F)F

Out:
1: 7.38 µM (active); 2: inactive; 3: inactive; 4: inactive

For each entry beneath this line, provide reported AC50.
1. CN(C)CCO
2. Cc1cccc(C)c1N

Out:
["inactive", "inactive"]

For each entry beneath this line, provide reported AC50.
1. O=C(O)C(F)(F)C(F)(F)C(F)(F)C(F)(F)C(F)(F)C(F)(F)C(F)(F)C(F)(F)F
2. ClC1=C(Cl)[C@]2(Cl)[C@@H]3[C@@H](Cl)[C@H]4O[C@H]4[C@@H]3C1(Cl)C2(Cl)Cl
3. CCCN(CCC)N=O
4. C=CC(N)=O
5. Cc1cc2c3c(c1)C(c1ccccc1)=N[C@@H](NC(=O)c1ccncc1)C(=O)N3CC2
6. COS(=O)(=O)OC

Out:
1: inactive; 2: inactive; 3: inactive; 4: inactive; 5: inactive; 6: inactive

For each entry beneath this line, provide reported AC50.
1. CCOC(=O)C(O)(c1ccc(Cl)cc1)c1ccc(Cl)cc1
2. Clc1ccc(C(Cl)(Cl)Cl)cc1

Out:
["31.1 µM (active)", "inactive"]

For each entry beneath this line, provide reported AC50.
1. ClC1=C(Cl)[C@]2(Cl)[C@@H]3[C@H]4C[C@H]([C@@H]5O[C@H]45)[C@@H]3[C@@]1(Cl)C2(Cl)Cl
2. CCCCCCCCOC(=O)c1ccccc1C(=O)OCCCCCCCC

Out:
inactive
inactive

For each entry beneath this line, provide reported AC50.
1. CCOP(=S)(OCC)SCSC(C)(C)C
2. CCC(=O)O[C@H]1CC[C@H]2[C@@H]3CCC4=CC(=O)CC[C@]4(C)[C@H]3CC[C@]12C
3. CC#Cc1cc(C)nc(Nc2ccccc2)n1
4. Cc1cccc([N+](=O)[O-])c1

Out:
inactive
27.3 µM (active)
inactive
inactive
